Assign TGI to each entry below.
test system: T-47D breast; assay: NCI tumour cell line growth inhibition, 48 h

# TGI (compound: Nc1ncnc2c1nnn2C1C=CC(COS(N)(=O)=O)C1 (stereo not given) ) is 97.7 µM

# TGI (compound: `O=S(=O)(O)c1cc(O)c2c(N=Cc3ccccc3O)cc(S(=O)(=O)O)cc2c1` ) is > 100 µM

# TGI (compound: `COC(=O)CCC(=O)NC1=C(NCc2ccccc2)C(=O)c2ccccc2C1=O` ) is > 100 µM

# TGI (compound: `CN(C)CCCNC(=O)c1cc(NC(=O)c2cc(NC(=O)CCc3c[nH]c4ccccc34)cn2C)cn1C` ) is > 100 µM

# TGI (compound: `COC(=O)NCCc1[nH]nc2c1C(=O)C=C(N1CCOCC1)C2=O` ) is > 100 µM

# TGI (compound: `Oc1ccc(-c2nc(-c3cccnc3)c(-c3ccc(Cl)cc3)[nH]2)cc1O` ) is 37.9 µM

# TGI (compound: `Cc1cc(S(=O)(=O)Nc2nc3cscc3c(=O)n2Cc2ccccc2)c(S)cc1Cl` ) is 90.8 µM

# TGI (compound: `CCOC(=O)N1CCN(c2nc(Nc3cc(C)[nH]n3)c3ccccc3n2)CC1` ) is 70.7 µM

# TGI (compound: OC(c1cc2ccccc2o1)c1cc2ccccc2s1 (stereo not given) ) is > 10 µM

# TGI (compound: `COc1ccc(-c2cc(=O)c3ccc(C)nc3[nH]2)cc1` ) is > 100 µM

# TGI (compound: `CN(C)CCNC(=O)c1cccc2c(NCCN(C)C)c3ccccc3nc12` ) is > 83.6 µM

# TGI (compound: CC(C(=O)c1ccccc1)C(c1ccccc1)N1CCOCC1 (stereo not given) ) is > 100 µM

# TGI (compound: `COc1ccc2nc3c([N+](=O)[O-])ccc4c3c(c2c1)NCCN4CCO` ) is 3.68 µM

# TGI (compound: COC(=O)C(Cc1c(C2Nc3ccccc3C2CC(NC(=O)CNC(C)=O)C(=O)OC)[nH]c2ccccc12)NC(=O)CNC(C)=O (stereo not given) ) is > 100 µM

# TGI (compound: `CCOc1ccc2nc(SCc3nc4n(n3)S(=O)(=O)c3ccccc3N4C)sc2c1` ) is > 100 µM

# TGI (compound: `O=C(NCCC1([N+](=O)[O-])CCN(C(=O)c2ccccc2)CC1)c1ccccc1` ) is > 100 µM

# TGI (compound: `CCOC(=O)c1ccc(Nc2c3c(nc4ccccc24)CCCC3)cc1` ) is > 100 µM

# TGI (compound: `Cn1cc(C2=C(c3cn(CCCCN)c4ccccc34)C(=O)NC2=O)c2ccccc21` ) is > 25 µM

# TGI (compound: `CC(=O)O[C@H]1CC[C@@]2(C)C(=CC[C@H]3[C@@H]4CC[C@H](c5cc(C(F)(F)F)n(C(C)=O)n5)[C@@]4(C)CC[C@@H]32)C1` ) is 25 µM

# TGI (compound: `Cc1ccc(S(=O)(=O)NC(=O)C2C(=O)CC3(CCCCC3)CC2=O)cc1` ) is > 100 µM
